Value source: patent US8785488B2

target: human TGR5 (h-TGR5) (Homo sapiens); construct: expressed in transfected cells; test: TGR5/CRE-Luciferiase Assay (HEK 293 hTGR5/CRE-Luc cells); type: cell-based; conditions: h-TGR5 CRE-Luc EC50, Table 1; read-out: CRE-Luc (EC50)
pEC50: −log10 of the molar value.
MEASURE_NAME: pEC50

Below are worked cases with known answers.
COc1cc(C(C)(C)c2cnc(SCc3c(F)cc(OCCCNC(=N)N)cc3Cl)n2-c2ccc(F)cc2)ccc1F : > 7.00
COc1cc(C(C)(C)c2cnc(SCc3c(F)cc(-c4n[nH]c(=O)o4)cc3Cl)n2-c2ccc(F)cc2)ccc1Cl : > 7.00
CC(C)(c1ccc(Cl)c(Cl)c1)c1cnc(SCc2c(F)cccc2Cl)n1-c1ccc(F)cc1C(F)(F)F : 5.00 to 6.00
CC(C)(O)c1ccc(CSc2ncc(C(C)(C)c3ccc(Cl)c(Cl)c3)n2-c2ccc(F)cc2)c(Cl)c1 : 6.00 to 7.00

Exam item: Given the entry "COc1cc(C(C)(C)c2cnc(SCc3ccc(C(=O)NCCS(=O)(=O)O)cc3F)n2-c2ccc(F)cc2)ccc1Cl" , report its measured pEC50.
Marked response: > 7.00

Exam item: Given the entry "CC(C)(c1ccc(Cl)c(Cl)c1)c1c(Cl)nc(SCc2c(F)cccc2Cl)n1-c1ccc(F)cc1" , report its measured pEC50.
Marked response: 6.00 to 7.00

Exam item: Given the entry "CC(C)(c1ccc(Cl)c(Cl)c1)c1cnc(SCc2ccc(F)c(C(=O)NCC(=O)O)c2)n1-c1ccc(F)cc1" , report its measured pEC50.
Marked response: 6.00 to 7.00

Exam item: Given the entry "Cc1cc(-n2c(C(C)(C)c3ccc(Cl)c(Cl)c3)cnc2SCc2c(F)cc(C(=O)O)cc2F)ccc1F" , report its measured pEC50.
Marked response: > 7.00

Exam item: Given the entry "COc1ccc(C(C)(C)c2cnc(SCc3c(F)cc(C#N)cc3F)n2-c2ccc(F)cc2)cc1Cl" , report its measured pEC50.
Marked response: > 7.00

Exam item: Given the entry "CC(C)(O)c1ccc(CSc2ncc(C(C)(C)c3ccc(Cl)c(Cl)c3)n2-c2ccc(F)cc2)c(F)c1" , report its measured pEC50.
Marked response: 6.00 to 7.00

Exam item: Given the entry "CCOC(=O)c1cc(F)c(CSc2nc(C)c(C(C)(C)c3ccc(Cl)c(OC)c3)n2-c2ccc(F)cc2)c(Cl)c1" , report its measured pEC50.
Marked response: 6.00 to 7.00

Exam item: Given the entry "COc1cc(C(C)(C)c2cnc(SCc3c(F)cc(NC(=O)[C@@H](N)CC(=O)O)cc3Cl)n2-c2ccc(F)cc2)ccc1Cl" , report its measured pEC50.
Marked response: > 7.00

* * *

Target: h-TGR5 (Homo sapiens, UniProt Q8TDU6)
Construct: expressed in transfected cells
Sequence (Q8TDU6 1-330): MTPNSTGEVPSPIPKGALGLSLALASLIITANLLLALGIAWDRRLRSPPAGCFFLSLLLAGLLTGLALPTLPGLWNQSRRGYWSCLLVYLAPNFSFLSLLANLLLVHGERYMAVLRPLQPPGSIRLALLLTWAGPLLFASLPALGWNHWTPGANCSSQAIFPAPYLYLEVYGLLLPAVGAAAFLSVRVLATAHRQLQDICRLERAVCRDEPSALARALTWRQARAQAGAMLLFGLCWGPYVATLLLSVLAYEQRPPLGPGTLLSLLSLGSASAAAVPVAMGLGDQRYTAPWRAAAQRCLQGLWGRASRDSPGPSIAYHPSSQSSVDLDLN
Test: TGR5 cAMP Assay using Cisbio cAMP Dynamic2 htrf kit (hTGR5CRE-luc HEK 293 cells)
Type: cell-based
Conditions: h-TGR5 cAMP EC50, Table 1; read-out: cAMP (EC50)
pEC50: −log10 of the molar value.
Readings of pEC50 for the listed compounds

COc1cc(-n2c(C(C)(C)c3ccc(Cl)c(Cl)c3)cnc2SCc2c(F)cccc2Cl)ccc1F : > 7.00
CC(C)(c1ccc(F)c(Cl)c1)c1cnc(SCc2ccc(S(=O)(=O)NC(=O)NN3CCCC3)cc2Cl)n1-c1ccc(F)cc1 : 6.00 to 7.00
COc1cc(-n2c(C(C)(C)c3ccc(S(N)(=O)=O)c(Cl)c3)cnc2SCc2ccc(C(=O)NCCC(=O)O)cc2F)ccc1F : > 7.00

Here's the next entry for you.
Exam item: Form field - read-out: pEC50; system: h-TGR5 (Homo sapiens, UniProt Q8TDU6); submitted item: "CC(C)(c1ccc(Cl)c(Cl)c1)c1c(Cl)nc(SCc2c(F)cc(C(=O)O)cc2F)n1-c1ccc(F)cc1"
Marked response: 6.00 to 7.00
